test summary: DUSP6 inhibitors restoring Erk phosphorylation by chemical complementation, primary imaging in DUSP6-transfected HeLa (AID 609)
test context: HeLa MKP-3 transfected, phospho-Erk imaging KS statistic; measured here: nuclear pErk red intensity z-score; at 10 µM; stronger effect = higher value; cells stimulated with TPA for 15 min
readout name: z-score

Just so you know, measured z-score for Cc1ccc(CC2CC(=O)N(c3ccc4c(c3)OCCO4)C2=O)cc1 (configuration not stated) came out at 0.443

Just so you know, measured z-score for N#CC1=C(SCC(=O)c2ccccc2)NC2=C(C(=O)CCC2)C1c1ccco1 (configuration not stated) came out at -0.86

Just so you know, measured z-score for O=C(O)C1CSCN1S(=O)(=O)c1cccc2nsnc12 (configuration not stated) came out at -0.893

Just so you know, measured z-score for CCCCCCn1cc(C(=O)O)c(=O)c2ccccc21 came out at 1.42

Just so you know, measured z-score for Cc1c(C)c2cc(Cl)c(O)c(CN3CCN(C)CC3)c2oc1=O came out at 0.789

Just so you know, measured z-score for CN(C)C(CN1C(=O)C2CC=CCC2C1=O)c1cn(C)c2ccccc12 (configuration not stated) came out at 0.886

Just so you know, measured z-score for CC(=O)OCC(=O)[C@@]1(O)CC[C@H]2[C@@H]3CCC4=CC(=O)C=C[C@]4(C)[C@@]3(Cl)[C@@H](Cl)C[C@@]21C came out at 0.325

Just so you know, measured z-score for CN(C=C1C(=O)CC(C)(C)CC1=O)CCN1CCNCC1 came out at 1.89

Just so you know, measured z-score for CC(CN1c2ccccc2Sc2ccccc21)N(C)C (configuration not stated) came out at 0.272

Just so you know, measured z-score for CSc1ccccc1NC(=O)c1c(Br)cnn1C came out at 0.479

Just so you know, measured z-score for c1ccc(OCc2nn3c(C4CCCCC4)nnc3s2)cc1 came out at 1.81

Just so you know, measured z-score for COc1ccc(N2CCN(c3nc4c(c(=O)[nH]c(=O)n4C)n3CCCc3ccccc3)CC2)cc1 came out at 0.632

Just so you know, measured z-score for CCCC(=O)Nc1ccc(OCC(O)CNC(C)C)c(C(C)=O)c1 (configuration not stated) came out at 0.31

Just so you know, measured z-score for Cc1c(O)c(CN2CCCCC2)cc2c3c(c(=O)oc12)CCC3 came out at -0.433

Just so you know, measured z-score for COc1ccc(-c2nc3n(c2Br)CCC3)cc1 came out at -1.03

Just so you know, measured z-score for O=S1(=O)C[C@@H](N2CCOCC2)[C@H](N2CCOCC2)C1 came out at 0.179

Just so you know, measured z-score for O=c1c(C=NCCCn2ccnc2)c(-c2ccccc2)[nH]n1-c1nc2ccccc2s1 came out at 0.991

Just so you know, measured z-score for Cc1nc(SCC(N)=O)[nH]c(=O)c1Cc1ccc(OC(C)C)cc1 came out at 0.0528

Just so you know, measured z-score for CC1(C)Cc2c(c(N3CCOCC3)nc3snc(N)c23)CO1 came out at 0.222

Just so you know, measured z-score for COc1ccc(/C=C/C2=NC(=C\N(C)C)/C(=O)O2)cc1 came out at -1.61

Just so you know, measured z-score for N#CC12CCCCC1CC1CCCCC1(C#N)N2Cc1ccccn1 (configuration not stated) came out at -1.95

Just so you know, measured z-score for COc1nc(N(C)S(=O)(=O)c2ccc(C)cc2)nc(C)c1Cl came out at 1.29

Just so you know, measured z-score for Cc1cc(C)c2c(N)c(C(=O)c3ccccc3)oc2n1 came out at 0.479

Just so you know, measured z-score for Cc1cc(C)n(C(=O)CNC(=O)C2COc3ccccc3O2)n1 (configuration not stated) came out at 0.636

Just so you know, measured z-score for COc1cccc(-c2nc(N3CCN(Cc4ccccc4)CC3)c3ccccc3n2)c1O came out at 0.663

Just so you know, measured z-score for CC(=O)C1=C(O)C(=O)N(c2cccc(C(=O)O)c2)C1c1ccccc1F (configuration not stated) came out at 0.539

Just so you know, measured z-score for c1ccc(-c2nn3c(C4CCCCC4)nnc3s2)cc1 came out at 1.15

Just so you know, measured z-score for Cc1nc2sc3c(NCc4ccco4)ncnc3c2c2c1COC(C)(C)C2 came out at 1.05

Just so you know, measured z-score for CCCCNC1=C(Br)C(=O)CC(C)(C)C1 came out at 0.291

Just so you know, measured z-score for CCn1cc(C(=O)NCC2CCCO2)c(=O)c2cc(F)c(N3CCN(C)CC3)cc21 (configuration not stated) came out at 2

Just so you know, measured z-score for CNS(=O)(=O)c1cccc2nsnc12 came out at 1.87

Just so you know, measured z-score for CC(=O)c1c(C)c2c(n1CCN(C)C)CCCC2 came out at 1.25

Just so you know, measured z-score for C[C@]12CC[C@@H]3c4ccc(O)cc4CC[C@H]3[C@@H]1CCC2=O came out at 2.06

Just so you know, measured z-score for CC(C)OC(=O)C(CC(=O)O)NCc1ccccc1 (configuration not stated) came out at 0.212

Just so you know, measured z-score for O=C(c1ccc(F)cc1)N1CCC(N2CCCCCC2)CC1 came out at -0.618

Just so you know, measured z-score for CC1(C)CN(O)CCN1O came out at -0.0914

Just so you know, measured z-score for CN1CCC(=C2c3ccccc3CC(=O)c3sccc32)CC1 came out at -2.59

Just so you know, measured z-score for COc1cccc(-c2nc(N3CCCCC3)c3ccccc3n2)c1O came out at -0.772

Just so you know, measured z-score for COC(=O)CSc1nc(C)c(C(C)=O)cc1C#N came out at -0.0332

Just so you know, measured z-score for Cc1coc2c(O)cc3c(c12)OC1(N2CCCCC2)C(=O)NCCCC31 (configuration not stated) came out at 2.15

Just so you know, measured z-score for Cc1nc2c(c(=O)n1CC1CCCO1)c1nc3ccccc3nc1n2CC(C)C (configuration not stated) came out at -2.3

Just so you know, measured z-score for COc1cccc(C2/C(=C(/O)c3cnn(-c4ccccc4)c3C)C(=O)C(=O)N2CCN(C)C)c1 (configuration not stated) came out at 0.0449

Just so you know, measured z-score for O=C(O)CC1Sc2nc3ccccc3n2C1=O (configuration not stated) came out at -0.43

Just so you know, measured z-score for O=C1NC2c3ccccc3C(=O)N2c2c1cnn2-c1ccccc1 (configuration not stated) came out at -0.995

Just so you know, measured z-score for CCOC(=O)CSc1nc(-c2ccncc2)ccc1C#N came out at 0.758

Just so you know, measured z-score for Cc1cccc(N(C)C(=S)Oc2ccc3ccccc3c2)c1 came out at -0.61

Just so you know, measured z-score for CCCCOc1ccc(-c2nnc(N)s2)cc1 came out at 0.136

The reported measurements were obtained from PubChem BioAssay.
